Sourced from PubChem BioAssay (NCATS)

Biological target: Cytochrome P450 2C19 (Homo sapiens) (UniProt P33261)
Sequence (P33261 whole entry, looked up): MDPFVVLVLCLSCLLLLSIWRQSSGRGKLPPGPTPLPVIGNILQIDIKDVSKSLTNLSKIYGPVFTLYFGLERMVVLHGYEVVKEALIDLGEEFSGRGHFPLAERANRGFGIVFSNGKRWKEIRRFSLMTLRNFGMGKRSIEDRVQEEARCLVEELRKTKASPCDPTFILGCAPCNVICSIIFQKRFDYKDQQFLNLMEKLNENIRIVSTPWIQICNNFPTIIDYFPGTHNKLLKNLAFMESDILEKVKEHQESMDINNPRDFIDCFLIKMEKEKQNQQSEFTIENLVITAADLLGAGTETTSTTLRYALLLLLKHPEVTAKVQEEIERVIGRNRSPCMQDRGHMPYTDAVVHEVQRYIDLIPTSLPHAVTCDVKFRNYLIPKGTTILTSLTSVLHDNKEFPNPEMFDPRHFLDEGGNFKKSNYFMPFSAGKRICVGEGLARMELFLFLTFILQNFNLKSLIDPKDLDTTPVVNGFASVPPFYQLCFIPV
Assay: qHTS Assay for Inhibitors and Substrates of Cytochrome P450 2C19 (AID 899); note: nearly all actives have a fitted effect of over 60% in size
Conditions: recombinant CYP2C19, luciferin-H EGE luminescence; series mostly up to 57.1 µM
Records with an inconclusive call do not appear. Calls of active or inactive are those of the source. Calls come from the whole dose curve; as a rule, active = well fitted inhibition curve with a large enough effect; inconclusive = small, poorly fitted or top-dose-only effect; inactive = no such curve, though single readings can be large or run the other way.
Outcome codes: 1 (active), 0 (inactive)

- Smiles Str: "COc1ccc(CNc2ncncc2-c2ccc(N(C)C)cc2)c(OC)c1"
  Classification: 1
- Smiles Str: "Cc1ccccc1-c1cncnc1Nc1ccccc1"
  Classification: 1
- Smiles Str: "CN(C)C(=O)c1ccc(-c2nc(N(C)C)c3ccccc3n2)cc1"
  Classification: 0
- Smiles Str: "Fc1ccc(Nc2ccnc(-c3ccc4c(c3)OCO4)n2)cc1"
  Classification: 1
- Smiles Str: "C[C@@H](COc1ccccc1)N(CCCl)Cc1ccccc1"
  Classification: 1
- Smiles Str: "COc1ccc(CNc2ncnc3ccc(-c4ccoc4)cc23)c(OC)c1"
  Classification: 1
- Smiles Str: "COc1ccc(CNc2nc(-c3ccc4c(c3)OCO4)nc3ccccc23)c(OC)c1"
  Classification: 1
- Smiles Str: "COc1ccccc1CNc1ncnc2ccc(-c3cccc(C#N)c3)cc12"
  Classification: 1
- Smiles Str: "Cc1noc(C)c1-c1ccc2ncnc(N(C)Cc3ccco3)c2c1"
  Classification: 1
- Smiles Str: "O=c1c(-c2ccc(F)c(F)c2)nc2cncnc2n1Cc1ccccc1Cl"
  Classification: 1
- Smiles Str: "c1ccc(Nc2nc(-c3ccc4c(c3)OCO4)nc3ccccc23)cc1"
  Classification: 1
- Smiles Str: "c1csc(CNc2nc(-c3ccc4c(c3)OCO4)nc3ccccc23)c1"
  Classification: 1
- Smiles Str: "CN(Cc1ccco1)c1ncncc1-c1ccccc1C(F)(F)F"
  Classification: 1
- Smiles Str: "CN1CCN(c2ncncc2-c2ccoc2)CC1"
  Classification: 0
- Smiles Str: "COCC(=O)N1CCC2(CC1)CN(Cc1nccs1)C2"
  Classification: 0
